assay: chemical genetic growth profiling, strain panel (AID 1159580);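 also: tested at 20 µM; growth read once vehicle control cultures reached saturation at 30 °C; 1 = growth at the plate median or of vehicle wells; lower values mean less growth of the strain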; settings: S. cerevisiae deletion strains, growth OD, locus YIL125W, strain kgd1
About 2,000 (36%) of roughly 5,500 compounds were called active. Another 18% or so got no clear call; they are omitted. Rule as the data show it: active = normalized growth mostly below about 0.91 (no sharp cut-off); inconclusive = no clear call, values can overlap the other calls; inactive = mostly above about 0.92. This is one part of the list.
Classes to choose from: Y (active), N (inactive)

- molecule: "C=C[C@H]1CN2CC[C@H]1C[C@@H]2[C@@H](OC(=O)OCC)c1ccnc2ccc(OC)cc12"
  answer.label: "N"
- molecule: "O=c1c(O)c(-c2ccc(O)cc2O)oc2cc(O)cc(O)c12"
  answer.label: "N"
- molecule: "COC(=O)C[C@H]1C(C)(C)C2(Cl)O[C@@]34CC2C(=O)[C@]1(C)C3CC[C@]1(C)C4=CC(=O)O[C@H]1c1ccoc1 (stereo partly specified)"
  answer.label: "N"
- molecule: "NC(CSCSCC(N)C(=O)O)C(=O)O (stereo unspecified)"
  answer.label: "N"
- molecule: "CC(=O)OC1CN2CCC1CC2 (stereo unspecified)"
  answer.label: "N"

Task item: Record request — test call for CCCCCCC(C)OC(=O)COc1ccc(Cl)cc1Cl (stereo unspecified)
Reply: N

Task item: Record request — test call for CC(C)N(CCC(C(N)=O)(c1ccccc1)c1ccccn1)C(C)C (stereo unspecified)
Reply: N

Task item: Record request — test call for O=c1cc(-c2ccc(O)cc2)oc2cc(O[C@@H]3O[C@H](CO)[C@@H](O)[C@H](O)[C@H]3O)cc(O)c12
Reply: N

Task item: Record request — test call for COC(=O)[C@@]1(C)CCC[C@]2(C)c3ccc(O)c(C(C)C)c3CCC12 (stereo partly specified)
Reply: Y

Task item: Record request — test call for COc1cc2occc2c2oc(=O)ccc12
Reply: N

Task item: Record request — test call for CC(=O)[C@@]1(O)CCC2C3C[C@H](C)C4=CC(=O)C=CC4(C)[C@@]3(F)[C@@H](O)C[C@@]21C (stereo partly specified)
Reply: N

Task item: Record request — test call for CC(C)c1c(O)ccc2c1CCC1[C@@](C)(C=O)CCC[C@]21C (stereo partly specified)
Reply: Y

Task item: Record request — test call for CCCCOc1cc(C(=O)NCCN(CC)CC)c2ccccc2n1
Reply: N

Task item: Record request — test call for CC1O[C@@H](Oc2c(-c3ccc(O)c(O)c3)oc3cc(O)cc(O)c3c2=O)[C@H](O)[C@H](O)[C@H]1O (stereo partly specified)
Reply: N

Task item: Record request — test call for CCN(Cc1ccncc1)C(=O)C(CO)c1ccccc1 (stereo unspecified)
Reply: N

====

# Lookup of reported normalized growth keyed by entry
experiment: chemical genetic growth profiling, strain panel (AID 1159580); conditions: S. cerevisiae deletion strains, growth OD, locus YKL068W, hits give low values
Out of some 5,500 compounds screened, about 2,000 (36%) were called active. About 18% were inconclusive and are not listed. This is one part of the list.

Task item: # get_value(readout='normalized growth', item= CC1(C)C2CC(=O)[C@]3(C)C(CC[C@@]4(C)[C@H](c5ccoc5)OC(=O)[C@H]5O[C@]543)[C@@]2(C)C(=O)C[C@H]1O (stereo not given in full) )
Reply: 1.01 (inactive)

Task item: # get_value(readout='normalized growth', item= CCC/C=C1\OC(=O)C2=C1CCC=C2 )
Reply: 0.994 (inactive)

Task item: # get_value(readout='normalized growth', item= CC1(C)C(=O)C=C[C@@]2(C)C1C=C[C@]1(C)C2CC[C@@]2(C)[C@H](c3ccoc3)OC(=O)C3OC321 (stereo not given in full) )
Reply: 0.998 (inactive)

Task item: # get_value(readout='normalized growth', item= O=C(O[C@@H]1Cc2c(O)cc(O)cc2O[C@@H]1c1cc(O)c(=O)c2c(O)c(O)cc([C@H]3Oc4cc(O)cc(O)c4C[C@H]3O)c2c1)c1cc(O)c(O)c(O)c1 )
Reply: 1.04 (inactive)

Task item: # get_value(readout='normalized growth', item= O=C(O)C1=C[C@@H](O)[C@@H](O)[C@H](O)C1 )
Reply: 1 (inactive)

====

assay: chemical genetic growth profiling, strain panel (AID 1159580); settings: S. cerevisiae deletion strains, growth OD, locus YJL187C, strain SWE1
About 2,000 (36%) of roughly 5,500 compounds were called active. Not shown: some 18% with an inconclusive outcome. No stated cut-off is given here; in the data, active means normalized growth mostly below about 0.91 (no sharp cut-off); inconclusive means no clear call, values can overlap the other calls; inactive means mostly above about 0.92. The list shows a part of the results.
Classes to choose from: y (active), n (inactive)

- compound: "CN(C)C=Nc1nnc(Sc2nc3cc(Cl)ccc3s2)s1"
  answer.label: "n"
- compound: "Cc1cc(C2CCCCC2)n(O)c(=O)c1"
  answer.label: "y"
- compound: "OCC(O)C(O)C(O)C(O)C(O)CO (centres undefined)"
  answer.label: "n"

For the next question, use this compound.
Task item: Record request — test call for OC1(C(F)(F)F)CC(c2ccccc2)=NN1 (centres undefined)
Reply: n

====

assay: chemical genetic growth profiling, strain panel (AID 1159580);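 also: tested at 20 µM; growth read once vehicle control cultures reached saturation at 30 °C; 1 = growth at the plate median or of vehicle wells; lower values mean less growth of the strain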; details: S. cerevisiae deletion strains, growth OD, locus YDL005C, strain med2, hits give low values
Out of some 5,500 compounds screened, about 2,000 (36%) were called active. Another 18% or so got no clear call; they are omitted. Some of the results follow.
# Lookup of reported normalized growth keyed by entry
I only need the number, thanks.

The cases that follow already have their normalized growth on record.
- molecule: "O=c1ccc2c(O)c3ccoc3cc2o1"
  value.observed: 0.986
- molecule: "CC(=O)Oc1ccc2c(c1C(C)C)CCC1C(C)(C)CCC[C@]21C (stereo partly specified)"
  value.observed: 1.02
- molecule: "COc1c2ccoc2cc2oc(=O)ccc12"
  value.observed: 0.996
- molecule: "OC1CC2CCCC(C1)N2Cc1ccccc1 (stereo unspecified)"
  value.observed: 0.992
- molecule: "CC(C)c1c(O)ccc2c1CCC1[C@@](C)(CO)CCC[C@]21C (stereo partly specified)"
  value.observed: 1.02

Okay, now this molecule:
Task item: # get_value(readout='normalized growth', item= CC1(C)C2CC(=O)[C@]3(C)C(CC[C@@]4(C)[C@H](c5ccoc5)OC(=O)[C@H]5O[C@]543)[C@@]2(C)C(=O)C[C@H]1O (stereo partly specified) )
Reply: 1

====

# Lookup of reported normalized growth keyed by entry
assay: chemical genetic growth profiling, strain panel (AID 1159580);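 also: tested at 20 µM; growth read once vehicle control cultures reached saturation at 30 °C; 1 = growth at the plate median or of vehicle wells; lower values mean less growth of the strain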; settings: S. cerevisiae deletion strains, growth OD, locus YJL166W, strain qcr8, hits give low values
Among all 5,500 compounds or so, about 2,000 (36%) were called active. Another 18% or so got no clear call; they are omitted. The list shows a part of the results.

The cases that follow already have their normalized growth on record.
- compound: "CN[C@@H]1C(O)[C@@H](O[C@@H]2[C@@H](O)[C@H](O[C@H]3OC(CN)=CC[C@H]3N)[C@@H](N)C[C@H]2N)OC[C@]1(C)O (stereo partly specified)"
  value.observed: "1.03 (inactive)"
- compound: "CC[n+]1c(-c2ccccc2)c2cc(N)ccc2c2ccc(N)cc21"
  value.observed: "0.993 (inactive)"
- compound: "Cc1cc(OC(=O)c2c(C)cc(O)cc2O)cc(O)c1C(=O)O"
  value.observed: "0.987 (inactive)"
- compound: "COC(=O)c1c(C)cc(O)cc1O"
  value.observed: "0.998 (inactive)"
- compound: "COc1cc2occc2c2oc(=O)ccc12"
  value.observed: "1.02 (inactive)"

Okay, now this compound:
Task item: # get_value(readout='normalized growth', item= CCOCN(C(=O)CCl)c1c(C)cccc1CC )
Reply: 0.991 (inactive)

====

test: chemical genetic growth profiling, strain panel (AID 1159580);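 also: tested at 20 µM; growth read once vehicle control cultures reached saturation at 30 °C; 1 = growth at the plate median or of vehicle wells; lower values mean less growth of the strain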; conditions: S. cerevisiae deletion strains, growth OD, locus YDL101C, strain DUN1, hits give low values
The campaign covered roughly 5,500 compounds. About 2,000 (36%) were called active. Roughly 18% stayed inconclusive and do not appear here. The list shows a part of the results.
observed.property: normalized growth

- compound: "CC(C)[N+](C)(CCC(C(N)=O)(c1ccccc1)c1ccccc1)C(C)C"
  normalized growth: "1.01 (inactive)"
- compound: "CCc1cccc(CC)c1N(COC)C(=O)CCl"
  normalized growth: "1.01 (inactive)"
- compound: "NC(=O)NCCCC(N)C(=O)O (stereo unspecified)"
  normalized growth: "1.03 (inactive)"
- compound: "CCCCCCCCCCCC1=C(O)C(=O)C=C(O)C1=O"
  normalized growth: "0.994 (inactive)"
- compound: "c1ccc(-c2nnc(-c3ccccn3)nc2-c2ccccc2)cc1"
  normalized growth: "0.957 (inactive)"
- compound: "C[C@@H]1O[C@@H](OC[C@H]2OC(Oc3c(-c4ccc(OCCO)c(OCCO)c4)oc4cc(OCCO)cc(O)c4c3=O)[C@H](O)[C@@H](O)[C@@H]2O)[C@H](O)[C@H](O)[C@H]1O (stereo partly specified)"
  normalized growth: "0.979 (inactive)"
- compound: "CC(C)c1c(O)ccc2c1CCC1C(C)(C)CCC[C@]21C (stereo partly specified)"
  normalized growth: "0.185 (active)"
- compound: "Cc1ccc(/C=C2\\CCc3ccccc3C2=O)o1"
  normalized growth: "0.472 (active)"

Task item: # get_value(readout='normalized growth', item= CC(=O)Oc1ccc2c(c1C(C)C)CCC1C(C)(C)CCC[C@]21C (stereo partly specified) )
Reply: 1.03 (inactive)

Task item: # get_value(readout='normalized growth', item= O=C(Cc1cccs1)NC1C(=O)N2C(C(=O)[O-])=C(C[n+]3ccccc3)CSC12 (stereo unspecified) )
Reply: 1.02 (inactive)

Task item: # get_value(readout='normalized growth', item= COc1cc(/C=C(\C#N)C(N)=S)cc(OC)c1OC )
Reply: 0.943 (inactive)
